The following compounds are shown together with reported IC50 values.
- SYSTEM: TGFβR2 (Homo sapiens, UniProt P37173)
- Sequence (P37173 23-567): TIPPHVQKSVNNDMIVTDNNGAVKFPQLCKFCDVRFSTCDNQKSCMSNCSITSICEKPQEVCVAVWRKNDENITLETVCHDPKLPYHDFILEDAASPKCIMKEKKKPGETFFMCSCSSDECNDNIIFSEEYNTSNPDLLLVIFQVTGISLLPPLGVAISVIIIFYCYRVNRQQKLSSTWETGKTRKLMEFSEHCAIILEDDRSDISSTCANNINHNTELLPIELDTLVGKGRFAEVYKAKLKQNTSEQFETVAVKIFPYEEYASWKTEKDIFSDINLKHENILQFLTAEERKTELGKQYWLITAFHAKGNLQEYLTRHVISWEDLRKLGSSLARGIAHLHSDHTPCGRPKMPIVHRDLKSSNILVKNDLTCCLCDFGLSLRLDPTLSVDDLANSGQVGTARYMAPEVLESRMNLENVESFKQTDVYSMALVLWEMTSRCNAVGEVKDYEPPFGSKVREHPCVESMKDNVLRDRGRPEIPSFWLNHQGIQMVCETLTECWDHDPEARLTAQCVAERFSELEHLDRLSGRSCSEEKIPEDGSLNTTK
- TEST_SUMMARY: In vitro enzymatic activity inhibition test (TGFβR2), ADP-Glo Kinase Detection Kit
- Format: biochemical
- CONDITIONS_USED: MBP substrate, calculated from percent inhibition at 1000nM, 100nM, 10nM

Before answering, review these 5 worked examples.
COMPOUND: Cc1cccc(-n2nccc2-c2ccn3ncnc3c2)n1 [Example 2]
IC50: > 1000 nM
//
COMPOUND: Cc1cccc(-n2nc(NCc3ccc(F)cc3)cc2-c2ccn3ncc(C(N)=O)c3c2)n1 [Example 11]
IC50: 593 nM
//
COMPOUND: CNc1cc(-c2ccn3ncc(C(N)=O)c3c2)n(-c2cccc(C)n2)n1 [Example 8]
IC50: > 1000 nM
//
COMPOUND: Cc1cccc(-n2nc(NC(C)c3ccc(F)cc3)cc2-c2ccn3ncc(C(N)=O)c3c2)n1 (stereo not drawn) [Example 10]
IC50: > 1000 nM
//
COMPOUND: Cc1cccc(-n2nccc2-c2ccn3ncc(C(N)=O)c3c2)n1 [Example 12]
IC50: > 1000 nM

Then this compound:
## Task Answer with reported IC50 of Cc1cccc(-n2nccc2-c2ccn3nccc3c2)n1 [Example 3]
## Result > 1000 nM

---

- TEST_SUMMARY: Pharmacokinetics (PK) study in Balb/c mice
- Format: in vivo
- CONDITIONS_USED: mouse; female Balb/c mice, IV, 1 mg/kg, whole blood
MEASUREMENT_KIND: clearance (mL/min/kg)

SMILES_STR: CNc1cc(-c2ccn3ncc(C(N)=O)c3c2)n(-c2cccc(C)n2)n1
UNIT_STRING: mL/min/kg
clearance: 35
--
SMILES_STR: Cc1cccc(-n2nccc2-c2ccn3ncc(C(N)=O)c3c2)n1
UNIT_STRING: mL/min/kg
clearance: 29.3

---

- SYSTEM: TGFβR1 (Homo sapiens)
- Sequence (P36897 34-503): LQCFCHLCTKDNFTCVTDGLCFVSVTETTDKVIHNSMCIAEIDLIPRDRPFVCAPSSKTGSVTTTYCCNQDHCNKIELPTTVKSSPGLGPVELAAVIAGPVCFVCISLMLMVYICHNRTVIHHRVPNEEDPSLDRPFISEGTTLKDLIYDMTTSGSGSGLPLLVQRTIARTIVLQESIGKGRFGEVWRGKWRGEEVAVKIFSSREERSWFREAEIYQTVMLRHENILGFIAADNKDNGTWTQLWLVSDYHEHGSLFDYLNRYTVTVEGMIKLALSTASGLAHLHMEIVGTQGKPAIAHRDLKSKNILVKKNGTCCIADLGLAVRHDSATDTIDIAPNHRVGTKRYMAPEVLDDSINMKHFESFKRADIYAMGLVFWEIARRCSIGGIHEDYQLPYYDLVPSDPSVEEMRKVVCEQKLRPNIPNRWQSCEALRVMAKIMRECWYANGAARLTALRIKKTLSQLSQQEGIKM
- TEST_SUMMARY: In vitro enzymatic activity inhibition test (TGFβR1), ADP-Glo Kinase Detection Kit
- Assay type: biochemical
- CONDITIONS_USED: calculated from percent inhibition at 1000 nM, 100 nM, 10 nM
MEASUREMENT_KIND: IC50 (nM)

Before answering, review these 2 worked examples.
COMPOUND: Cc1cccc(-n2nccc2-c2ccn3ncc(C(N)=O)c3c2)n1 [Example 12]
IC50 (nM): 9.39

COMPOUND: Cc1cccc(-n2nccc2-c2ccn3nccc3c2)n1 [Example 3]
IC50 (nM): 43.8

A. Cc1cc(CNc2cc(-c3ccc4ncsc4c3)n(-c3cccc(C)n3)n2)ccn1 [Example 9]
B. Cc1cccc(-n2nccc2-c2ccn3ncnc3c2)n1 [Example 2]
## Task From the recorded data, which exceeds the other in IC50: A or B ? Answer format: the label of the selected item.
## Result A
(A: 27.4 nM, B: 9.83 nM)

---

- TEST_SUMMARY: Pharmacokinetics (PK) study in Balb/c mice
- Assay type: in vivo
- CONDITIONS_USED: mouse; female Balb/c mice, IV, 1 mg/kg, whole blood; read-out: Cmax
MEASUREMENT_KIND: Cmax (ng/mL)

COMPOUND: Cc1cccc(-n2nccc2-c2ccn3ncc(C(N)=O)c3c2)n1 [Example 12]
UNIT_STRING: ng/mL
Cmax: 862
//
COMPOUND: CNc1cc(-c2ccn3ncc(C(N)=O)c3c2)n(-c2cccc(C)n2)n1 [Example 8]
UNIT_STRING: ng/mL
Cmax: 917
